Plate + tested compound UVB %: recorded values
assay: UVA/UVB absorption of compound films on glass slides, with and without 20 hours ageing under UV (Xenon instrument); format: physicochemical; conditions: transmission T (%); ageing for 20 hours under UV (Xenon instrument)

{"columns": ["compound", "Plate + tested compound UVB % (%)"],
 "data": [
  ["COc1ccc(/N=C2/C=C(NCC(=O)O)CC(C)(C)C2)cc1", 0.46],
  ["CC1(C)CC2=C(SCC(C(=O)O)N2)/C(=N/c2ccccc2)C1 (stereo not shown)", 1.97],
  ["COc1ccc(/N=C2\\CC(C)(C)CC3=C2SCC(C(=O)O)N3)cc1 (stereo not shown)", 0.64],
  ["COc1ccc(/N=C2\\CC(C)(C)CC3=C2SCC(C(=O)O)N3)cc1OC (stereo not shown)", 0.39],
  ["CC1(C)CC2=C(SCC(C(=O)O)N2)/C(=N/c2ccc(F)cc2)C1 (stereo not shown)", 0.81],
  ["COc1ccc(/N=C2/C=C(NCC(=O)O)CCC2)cc1", 0.62],
  ["CC1(C)CC2=C(SCC(C(=O)O)N2)/C(=N/c2ccc(C(=O)NC(C)(C)C)cc2)C1 (stereo not shown)", 1.02]
]}
